These data points were gathered from patent US7488712B2.

Examples of compounds with documented IC50 follow.
- System Name: human HDAC1 (Homo sapiens)
- Construct: FLAG; made in house; host or cells: 293T cells (transient transfection, anti-FLAG immunoprecipitation, FLAG peptide elution)
- Sequence (Q13547 whole entry): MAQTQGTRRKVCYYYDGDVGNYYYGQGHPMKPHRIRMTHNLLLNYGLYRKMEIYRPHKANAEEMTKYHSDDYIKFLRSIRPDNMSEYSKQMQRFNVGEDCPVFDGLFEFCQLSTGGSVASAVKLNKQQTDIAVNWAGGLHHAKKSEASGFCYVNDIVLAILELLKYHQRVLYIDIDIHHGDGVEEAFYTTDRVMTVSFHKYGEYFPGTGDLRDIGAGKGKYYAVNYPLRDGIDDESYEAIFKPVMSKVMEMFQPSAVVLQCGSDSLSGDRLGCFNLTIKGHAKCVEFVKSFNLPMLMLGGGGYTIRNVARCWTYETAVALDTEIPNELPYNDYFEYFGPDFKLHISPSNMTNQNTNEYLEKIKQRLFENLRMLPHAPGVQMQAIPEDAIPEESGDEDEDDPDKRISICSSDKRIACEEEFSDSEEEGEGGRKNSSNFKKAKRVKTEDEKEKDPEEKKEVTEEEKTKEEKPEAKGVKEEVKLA
- Method Summary: In vitro HDAC inhibition activity, [3H]-acetylated histone substrate, HDAC1
- Format: biochemical
- Condition Summary: Table 2; homodimer
*1 amine or outer side, *2 acyl side, *3 side chain or, on linkers, in order; H or OH if unused. Where a SMILES comes first, the peptide text is derived from it. Bridges are numbered along the chain shown (N, C = ends). Roman numbers before positions name the chains, in order. [ ]: non-standard residue; d: D form. hNle(7-SH) = O=C([C@H](CCCCCS[*:3])N[*:1])[*:2]; dPip = O=C(O)[C@H]1CCCCN1

| Compound | IC50 [nM] |
| --- | --- |
| CC[C@H](C)[C@@H]1NC(=O)[C@@H](Cc2ccc(OC)cc2)NC(=O)[C@H](CCCCCCSSCCCCCC[C@@H]2NC(=O)[C@H]3CCCN3C(=O)[C@H]([C@@H](C)CC)NC(=O)[C@@H](Cc3ccc(OC)cc3)NC2=O)NC(=O)[C@H]2CCCN2C1=O [SCOP 306, cyclo(-L-Am8(-)-D-Tyr(Me)-L-Ile-D-Pro-] | 153 |
| CC[C@H](C)[C@@H]1NC(=O)[C@@H](Cc2ccc(OC)cc2)NC(=O)[C@H](CCCCCSSCCCCC[C@@H]2NC(=O)[C@H]3CCCCN3C(=O)[C@H]([C@@H](C)CC)NC(=O)[C@@H](Cc3ccc(OC)cc3)NC2=O)NC(=O)[C@H]2CCCCN2C1=O [SCOP 300, cyclo(-L-Am7(-)-D-Tyr(Me)-L-Ile-D-Pip-] (I: cyclo([hNle(7-SH)][dY](Me)I[dPip]) / II: cyclo([hNle(7-SH)][dY](Me)I[dPip]); disulfide I:1-II:1) | 61.1 |
| CC[C@H](C)[C@@H]1NC(=O)[C@@H](Cc2ccc(OC)cc2)NC(=O)[C@H](CCCCSSCCCC[C@@H]2NC(=O)[C@H]3CCCN3C(=O)[C@H]([C@@H](C)CC)NC(=O)[C@@H](Cc3ccc(OC)cc3)NC2=O)NC(=O)[C@H]2CCCN2C1=O [SCOP 302, cyclo(-L-Am6(-)-D-Tyr(Me)-L-Ile-D-Pro-] | 7200 |

----------
- System Name: human HDAC1 (Homo sapiens)
- Construct: FLAG; made in house; host or cells: 293T cells (transient transfection, anti-FLAG immunoprecipitation, FLAG peptide elution)
- Method Summary: In vitro HDAC inhibition activity, [3H]-acetylated histone substrate, HDAC1
- Assay type: biochemical
- Condition Summary: Table 3; hybrid with DTT (/DTT)
*1 amine or outer side, *2 acyl side, *3 side chain or, on linkers, in order; H or OH if unused. Where a SMILES comes first, the peptide text is derived from it. [ ]: non-standard residue; d: D form. The star is where a group is joined. hNle(7-SH) = O=C([C@H](CCCCCS[*:3])N[*:1])[*:2]; X1 = CN(C)C(=O)c1cc(S*)ccc1[N+](=O)[O-]

| Molecule | Unit Info | IC50 |
| --- | --- | --- |
| CC[C@H](C)[C@@H]1NC(=O)[C@@H](Cc2ccc(OC)cc2)NC(=O)[C@H](CCCCCSSCCO)NC(=O)[C@H]2CCCN2C1=O | nM | 2.44 |
| CC[C@H](C)[C@@H]1NC(=O)[C@@H](Cc2ccc(OC)cc2)NC(=O)[C@H](CCCCCSSc2ccncc2)NC(=O)[C@H]2CCCN2C1=O | nM | 0.553 |
| CC[C@H](C)[C@@H]1NC(=O)[C@@H](Cc2ccc(OC)cc2)NC(=O)[C@H](CCCCCSSc2ccc([N+](=O)[O-])c(C(=O)N(C)C)c2)NC(=O)[C@H]2CCCN2C1=O [SCOP 403] (cyclo([hNle(7-SH)](X1)[dY](Me)I[dP])) | nM | 1.15 |
